Target: Adenosine receptor A3 (Homo sapiens, UniProt P0DMS8)
Sequence (P0DMS8 whole entry): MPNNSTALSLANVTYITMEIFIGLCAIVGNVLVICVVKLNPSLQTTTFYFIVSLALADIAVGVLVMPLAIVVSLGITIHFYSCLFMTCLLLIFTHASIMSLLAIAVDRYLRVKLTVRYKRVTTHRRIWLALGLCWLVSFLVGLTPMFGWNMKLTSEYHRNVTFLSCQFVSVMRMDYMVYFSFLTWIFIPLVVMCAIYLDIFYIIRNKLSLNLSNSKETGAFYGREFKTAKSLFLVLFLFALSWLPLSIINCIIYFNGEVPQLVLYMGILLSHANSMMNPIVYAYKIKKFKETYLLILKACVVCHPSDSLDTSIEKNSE
Experiment: Binding affinity against human adenosine A3 receptor in HEK293 cells using [125I]AB-MECA […] radioligand.
assay.metric: Ki (µM)
Just the number in µM, nothing appended.

Worked cases, answers included:
Lookup: Please indicate Ki recorded for `O=c1ccnc2ccccn12`
Found: 48

Lookup: Please indicate Ki recorded for `Cc1cc(C)c(-c2oc3ccc(Cl)cc3c(=O)c2Cl)c(C)c1`
Found: 5.24

Further cases:
Lookup: Please indicate Ki recorded for O=C1CC(c2ccc(O)cc2)Oc2ccccc21 (stereo not drawn) [4'-HYDROXY-FLAVANONE]
Found: 42.8

---

biological target: Adenosine A2 receptor (Rattus norvegicus, UniProt P29276+P30543); experiment: Binding affinity at Adenosine A2 receptor in rat striatal membranes by [3H]-CGS- 21680 displacement.; assay type: cell membranes, Striatum, Membrane
assay.metric: log10 of Ki (log10 of the value in µM)
Give log10 of Ki, with Ki taken in µM.

Worked cases, answers included:
Lookup: Please indicate log10 of Ki recorded for `O=c1c(O)c(-c2ccc(O)cc2O)oc2cc(O)cc(O)c12`
Found: 1.24

Lookup: Please indicate log10 of Ki recorded for `O=c1c(O)c(-c2ccccc2)oc2cc(O)cc(O)c12`
Found: -0.02

Lookup: Please indicate log10 of Ki recorded for `O=c1c(Cl)c(-c2ccccc2)oc2ccccc12`
Found: 1.40

Lookup: Please indicate log10 of Ki recorded for `CCOc1c2ccoc2cc2oc(/C=C/C=C/c3ccccc3)cc(=O)c12`
Found: 2.22

Further cases:
Lookup: Please indicate log10 of Ki recorded for `COc1c2ccoc2cc2oc(C)cc(=O)c12`
Found: 1.63

Lookup: Please indicate log10 of Ki recorded for `CCOc1cc(OCC)c2c(=O)c(OCC)c(-c3ccccc3)oc2c1`
Found: 0.52

Lookup: Please indicate log10 of Ki recorded for `COc1ccc(-c2oc3cc(OC)cc(OC)c3c(=O)c2OC)c(OC)c1`
Found: 1.67

Lookup: Please indicate log10 of Ki recorded for `CCOc1ccc(-c2oc3cc(OCC)cc(OCC)c3c(=O)c2OCC)c(OCC)c1`
Found: 1.43
